Entries and their melting point values follow.

| compound | melting point |
| --- | --- |
| CCOC(=O)C=C(C)c1ccc(-c2ccccc2)cc1 | 76 to 78 °C |
| CC(C)(C)NC(=O)[C@@H]1CCCN1C(=O)[C@@H](O)[C@H](Cc1ccccc1)NC(=O)[C@H](CC(N)=O)NC(=O)COc1ccc(NC(=O)OCc2ccccc2)cc1 | 103 to 105 °C |
| N#CC1=Cc2cc(Br)ccc2OC1 | 132 to 133 °C |

[ask] Let me know recorded melting point for Cc1noc(-c2cnc(NC(=O)[C@H](CC3CCCC3)c3ccc(S(C)(=O)=O)c(Cl)c3)cn2)n1 , thanks.
[reply] 101 to 105 °C

[ask] Retrieve melting point measured for COc1cc(OC(C)(C)C(=O)O)c(-c2cccs2)cc1/C=C/C(=O)c1ccc(NS(C)(=O)=O)cc1 and print it.
[reply] 181 to 183 °C

[ask] In one line, give reported melting point of the entry CC(C)Oc1ccnc2[nH]cc(-c3ccnc(N)n3)c12 .
[reply] > 210 °C

[ask] # return recorded melting point for entry CC1OC(=O)C(C)C(NC(=O)OCc2ccccc2)C1C(=O)OCc1ccccc1 (centres undefined)
[reply] 110 to 112 °C

[ask] Return melting point (reported value) for this compound: O=C(CN1CCN(C(CO)C(=O)O)CCN(C(CO)C(=O)O)CCN(C(CO)C(=O)O)CC1)NCCOCCO (centres undefined)
[reply] 145 to 150 °C

[ask] Quote melting point reported for COCc1cnc(N)nc1N please.
[reply] 171 to 174 °C

* * *

experimental endpoint: melting point

Reference set, count: 4
| compound | reported |
| --- | --- |
| Cc1c(N2CC(O)C2)c(F)cc2c(=O)n(N)c(=O)n(C3CC3)c12 | 212 to 214 °C |
| CCC(=O)CCC1(C(N)=O)c2ccccc2-c2ccccc21 | 133 to 135 °C |
| CCOC(=O)c1cn(C2CC2)c2nc(N3CCCC(n4ccnn4)C3)c(F)cc2c1=O (stereo not given) | 205 to 206 °C |
| CC(C)n1nc(-c2sc(C(N)=O)nc2-c2cccc(Cl)c2)ccc1=O | 232 to 234 °C |

Kindly review the next compound as well.
[ask] Identify measured melting point corresponding to CN(C)Cc1cc2ccc(-c3nnc(CSCCOc4ccccc4)o3)cc2n1S(C)(=O)=O
[reply] 127 to 130 °C

* * *

Measured melting point accompanies every entry in the list below.

| compound | melting point |
| --- | --- |
| COc1ccc(S(=O)c2ccccc2)cc1[N+](=O)[O-] (stereo unspecified) | 135 to 137 °C |

[ask] Provide one value: measured melting point of O=CNCCCCCCO
[reply] 43.5 to 45 °C

[ask] Quick one: give measured melting point for CSc1nnc(-c2ccc(C)cc2)c(-c2ccc(C)cc2)n1
[reply] 170 to 172 °C

[ask] Provide one value: measured melting point of CC(=NCc1ccc(Cl)cc1Cl)c1ccc(OCC(O)(Cn2cncn2)C(C)(C)C)cc1 (stereo unspecified)
[reply] 101 °C

* * *

experimental endpoint: melting point

Some entries whose results are on file:
| compound | reported |
| --- | --- |
| COC(=O)c1cc(Cl)c(C)c(Br)c1 | 53 to 55 °C |
| Cc1noc2cc(N3CCOCC3)ccc12 | 138 to 140 °C |
| COc1cccc(CN2CCc3cc(O)c(OC)cc3C2C)c1 (stereo not given) | 97 to 99 °C |
| CC(C)Nc1cccnc1N1CCN(C(=O)c2ccc(C(=O)NCCN3CCOCC3)cc2)CC1 | 114 to 116 °C |
| CN(C)c1ccccc1CSc1nc2ccccc2[nH]1 | 167 to 170 °C |
| CN(c1cccc2cc(C3=NCC(C)(CN4CCC5(CC4)OCCO5)S3)[nH]c12)S(=O)(=O)c1cccs1 (stereo not given) | 172 to 173 °C |
| COCOc1ccc(-n2nc(C(F)(F)F)cc2-c2ccc(S(C)(=O)=O)cc2)cc1 | 96 to 97 °C |
| CCn1c2ccccc2c2cc(NC(=O)OC)ncc21 | 213 to 214 °C |
| CCN(CC)C(=O)c1cc(-c2ccccc2)ccc1-c1ccc(OC)cc1 | 139 to 141 °C |

Next, consider the following compound.
[ask] Retrieve melting point measured for CCOC(=O)C1=C(C(=O)OCC)c2c(OC)ccc(Br)c2C1 and print it.
[reply] 99 to 101 °C

* * *

experimental endpoint: melting point

Completed entries (count: 9):
| compound | melting point |
| --- | --- |
| O=c1c(F)cn(C2CCCO2)c(=O)n1C1CCCO1 (stereo not given) | 105 to 108 °C |
| O=C(NCc1cccnc1)c1ccc2n1Cc1ccccc1N(C(=O)/C=C/c1ccccc1)C2 | 175 °C |
| COc1ccc(S(=O)(=O)C2(C(=O)O)CCN(Cc3ccc(C)cc3)CC2)cc1 | 176 to 177 °C |
| Nc1nc(-c2ccccc2)c(CCBr)c2ncnn12 | 193 to 194 °C |
| N#Cc1ccc(COc2cccc(OCc3ccc4ccccc4n3)c2)cc1 | 112 °C |
| O=c1[nH]c(CO)nc2cc3c(cc12)CCC3 | 205 to 210 °C |
| CCOc1cc(NC(=O)NS(=O)(=O)c2ccc(C)cc2)cc(OCC)n1 | > 270 °C |
| COc1cc(/C=C/C=O)c([N+](=O)[O-])cc1OC | 103 to 105 °C |
| Cc1c(NC(=O)c2ccc(-c3ccc(F)cc3)c(F)c2)ccc2cc(CN3CCCC3)cnc12 | 176 to 178 °C |

Switching to the query record.
[ask] Specify melting point for C(=C(c1ccccc1)c1ccccc1)C1CCN(CCCCCCc2cncnc2)CC1 and stop.
[reply] 88 to 90 °C

* * *

Attribute: melting point

Would you please look over these solved cases?
| molecule | melting point |
| --- | --- |
| CCCCCCCCCCCC(=O)N[C@@H](C)C(=O)N[C@H](CCC(=O)OCc1ccccc1)C(N)=O | 169 °C |
| Cn1c(=O)c2c(Cl)cccc2n2cnc(C(=O)n3ccnc3)c12 | 242 to 243 °C |
| CCNC(=O)Cn1cccc(O)c1=O | 214 to 215 °C |
| N#Cc1ccc(N2CCc3ccccc32)cc1 | 88.5 to 89.5 °C |
| CCCn1c(CC)ccc1Cc1cccc(NC(N)=O)c1 | 59 to 61 °C |

[ask] Name the recorded melting point of the item O=C(O)c1c(C(F)(F)F)nc2c(C(F)(F)F)cccc2c1O in your answer.
[reply] 188 °C

[ask] Identify melting point associated with the molecule CC1(C)C=C(C(=O)NC2COC(C)(C)OCC2O)C(C)(C)N1 (configuration not stated)
[reply] 125 to 127 °C

[ask] Look up and state reported melting point for Cc1c(O)cc2c(c1C)CCC2c1c[nH]cn1 (configuration not stated)
[reply] 198 to 202 °C

[ask] Indicate its recorded melting point; the molecule in question is O=C(O)c1ccccc1C(=O)N1CC2CCC(C1)O2
[reply] 149 to 150 °C

[ask] Give a short answer stating reported melting point for CC(C)(C)C12OOC1(c1cc3cc(O[Si](C)(C)C(C)(C)C)ccc3s1)OCC2(C)C (configuration not stated) .
[reply] 125 to 126 °C

[ask] Input CC(=O)N[C@@H](CSC(=O)C(C)C)C(=O)NCCSC(=O)C(C)(C)C , output reported melting point.
[reply] 101 to 102 °C

[ask] # return recorded melting point for entry CS(=O)(=O)c1ccc(-c2cc(CO)nn2Cc2ccccc2)cc1
[reply] 155 °C

[ask] Respond only with melting point recorded for CCONC(=O)NNC(=O)CC
[reply] 122 °C

* * *

Measured melting point of individual entries

| compound | melting point |
| --- | --- |
| Oc1cccc(-c2ccncc2)c1 | > 300 °C |

[ask] For C=Cc1ncc2c(c1O)COC2C (stereo unspecified) , write its melting point.
[reply] 237 to 238 °C

[ask] State its melting point: c1ccc(OCCCCN2CCNCC2)cc1
[reply] 35 to 36 °C

[ask] Input O=C(NCc1ccc(Cl)cc1)c1cnc2c(F)cc(CCCCCO)cc2c1O , output reported melting point.
[reply] 193 to 195 °C

[ask] Give recorded melting point. COc1cc(C=CC(=O)Nc2ccccc2C(=O)O)ccc1O
[reply] 208 °C

[ask] Using the record for COC(=O)c1c(C)ccc(C(O)=S)c1C , state its measured melting point.
[reply] 178 °C

* * *

// melting point lookup, one value per entry

| molecule | reported |
| --- | --- |
| COC(=O)OCC1OC(Oc2cc(C)cc(O)c2C(=O)CCc2ccc3occc3c2)C(O)C(O)C1O (stereo not given) | 78 to 82 °C |
| C=CCN(c1ccccc1)c1cc2c(cc1N(CC=C)c1ccccc1)C(=O)NC2=O | 122 to 127 °C |
| CN1CCN(C(=O)COc2cccc(-n3nc(-c4ccc(F)cc4)c4cccnc43)c2)CC1 | 132 to 135 °C |

[ask] Tell us which melting point value is on record for Cc1cnc2c(c1)C(O)C(Cc1ccc(C#N)cc1)CC2 (stereo not given)
[reply] 174 to 175 °C

[ask] Tell us which melting point value is on record for Cn1c(=O)c2cnc(N)nc2n(C)c1=O
[reply] > 300 °C

[ask] Check the records and state melting point for OCC[Si](c1ccccc1)(c1ccccc1)c1ccccc1
[reply] 96 to 97 °C

[ask] Supply measured melting point of Cc1nc2n(c(=O)c1CCN1CCC(c3noc4ccccc34)CC1)CCCC2 in your reply.
[reply] 183 °C
